This collection of values is drawn from patent US20090023666A1.

System: A549
test method notes: cells
Assay type: cell-based
cond: Homo sapiens, A549, read-out: Anti-Proliferative activity IC50
quantity: IC50 (nM)
Please respond with the number in nM and leave the unit unwritten.

Asked: Entry under review: "C[C@]12CC/C(=N\OCCN3CCCCC3)C=C1CC[C@@H]1[C@@H]2CC[C@]2(C)[C@@H](c3ccc(=O)oc3)CC[C@]12O" . Reported IC50?
Given back: 7.3

Asked: Record: "C[C@@H]1O[C@@H](O[C@@H]2C=C3CC[C@@H]4[C@H](CC[C@]5(C)[C@@H](c6ccc(=O)oc6)CC[C@]45O)[C@@]3(C)CC2)[C@H](O)[C@H](O)[C@H]1N"
Given back: 4.8
